# system-tested: 5-HT2A receptor (Mus musculus)
# Sequence (P35363 whole entry): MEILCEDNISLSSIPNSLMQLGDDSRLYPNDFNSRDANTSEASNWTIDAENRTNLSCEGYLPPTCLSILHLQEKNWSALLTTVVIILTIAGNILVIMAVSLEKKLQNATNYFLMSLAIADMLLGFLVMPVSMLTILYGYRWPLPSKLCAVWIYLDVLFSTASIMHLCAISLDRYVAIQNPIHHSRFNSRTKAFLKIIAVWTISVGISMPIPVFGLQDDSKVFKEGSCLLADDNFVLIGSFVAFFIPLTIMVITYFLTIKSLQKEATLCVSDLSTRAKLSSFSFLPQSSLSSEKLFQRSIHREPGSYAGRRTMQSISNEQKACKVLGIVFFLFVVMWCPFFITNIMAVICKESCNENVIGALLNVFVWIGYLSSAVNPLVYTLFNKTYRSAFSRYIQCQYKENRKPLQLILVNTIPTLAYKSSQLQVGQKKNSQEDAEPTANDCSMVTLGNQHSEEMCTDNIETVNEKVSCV
# assay-remarks: 5-HT2A receptor binding in mouse frontal cortical tissue
# condition-notes: Ki, Mean (Mouse), mouse frontal cortical tissue
Readings of Ki for the listed compounds
reported-property: Ki

{"compound": "COc1ccc(OC)c(CCNCc2cc(C)cc(F)c2)c1 [Compound 2-2]", "system-tested": "5-HT2A receptor (Mus musculus)", "assay-result": "9.6 nM"}
{"compound": "CN(C)CCc1c[nH]c2cccc(O)c12 [Psilocin, psilocin]", "system-tested": "5-HT2A receptor (Mus musculus)", "assay-result": "45.1 nM"}

----------
# assay-remarks: Terminal plasma and brain concentrations in mice
# Format: in vivo
# condition-notes: C57BL/6J, mouse, plasma, intraperitoneal, 1 mg/kg, 1 mg/kg IP, read-out: Terminal Plasma Free Concentration (uM) at 15 min, Mean

{"item-smiles": "COc1ccc(OC)c(CCNCc2cc(C)cc(F)c2)c1", "concentration at 15 min (µM)": 0.016}
